tested on: A549/ATCC NSCLC; experiment: NCI-60 one-dose screen, 48 h; conditions: 10 µM unless noted
Compounds without any hit were thinned out: in the full panel of roughly 83,000, 20% have a hit. Calls of active or inactive are those of the source. Rule for the calls: active = growth percent below 10; inactive = the rest.
Please reply with one of these outcomes: YES = active, NO = inactive

Can you look up the reported call for CNCc1cccc2c1OCCOCCOCCC(C)S(=O)(=O)c1ccc(cc1)-c1cnc(N)c(n1)C(=O)N2 (stereo not given) for me? NO

Can you look up the reported call for `C/C(=N\OC(=O)Nc1ccccc1)c1ccccc1` for me? NO

Can you look up the reported call for `COc1ccc(/C=C/C(=O)c2ccc(NC(=O)CSc3nnc(-c4ccc(OC)cc4)n3-c3ccccc3)cc2)cc1` for me? NO

Can you look up the reported call for `CCCCCCCCCCCCCCCc1cc(O)ccc1[N+](=O)[O-]` for me? NO

Can you look up the reported call for `Cc1n(Cc2ccc3ccccc3n2)cc[n+]1Cc1ccc2ccccc2n1` for me? NO

Can you look up the reported call for `COc1cccc(CC(C)=C(c2ccc(OCCCN(C)C)cc2)c2ccc(OCCCN(C)C)cc2)c1` for me? YES

Can you look up the reported call for O=C(C(Br)C(Br)c1ccccc1)C(Br)C(Br)c1ccccc1 (stereo not given) for me? NO

Can you look up the reported call for CO[C@@]12[C@@H]3NC3CN1C1=C(C(=O)C(N)=C(C)C1=O)[C@@H]2COC(N)=O (stereo not given in full) for me? YES

Can you look up the reported call for `COc1ccc([C@@H]2[C@@H](Cl)C(=O)N2c2cc(OC)c(OC)c(OC)c2)cc1C` for me? NO

Can you look up the reported call for `Cc1nc2n[nH]c(N)c2nc1C` for me? NO
